System: MDA-MB-468 (human breast cancer cell)
Assay: MTT inhibition of proliferation, MDA-MB-468
Format: cell-based
Conditions: MDA-MB-468, MTT, 48 h; read-out: Inhibitory Activity on the Proliferation of Tumor Cells (IC50 ± SD) MDA-MB-468
Protocol: The compound 8 of the invention was prepared into required concentrations using a culture medium containing 0.1% DMSO. […] The test was repeated for thrice. A diagram was made by plotting the inhibition rate against the concentration of the compound, and the IC50 (half effective inhibitive concentration) value of the compound 8 of the invention was calculated. […]

{"molecule": "COc1cccc2c1C(=O)c1c(O)c3c(c(O)c1C2=O)C[C@@](O)(C(=O)CO)C[C@@H]3O[C@H]1C[C@H](N)[C@H](O)[C@H](C)O1 [ADR, Adriamycin amycin, reference compound]", "IC50 [nM]": 2450}
